- System: Saccharomyces cerevisiae
- assay: protein stability index of tFT-peptide fusion (C-terminal peptide) (PSI (0-1 scale)); higher = more stable (slower turnover)
- condition.description: genetic background: wild type; temperature: 30 C
Hi there, I'd appreciate the recorded protein stability index for every entry that follows.
Numbers only.

| sequence.input | protein stability index |
| --- | --- |
| VPACFSYFLASC | 0.68 |
| QIQKINTKSKKN | 0.699 |
| PPCCFPRSPSPS | 0.714 |
| HIPAFLSRFIHG | 0.685 |
| KKKKKRITKIKN | 0.709 |
| PASYLSSPLRPP | 0.667 |
| PPPPPPGSPTRP | 0.788 |
| FGVTGLGVGLVW | 0.639 |

Next:
Could you share which protein stability index value was measured for QAVVGRVRLRGE ? 0.677

====

- Test system: Saccharomyces cerevisiae
- assay: protein stability index of tFT-peptide fusion (C-terminal peptide) (PSI (0-1 scale)); higher = more stable (slower turnover)
- condition.description: genetic background: wild type; temperature: 37 C
Task for the reader: assign each of the following sequences its reported protein stability index.
Numbers only.

Please look at the items below and tell me protein stability index for each one, in order.
1. LRLCMVFAWFLT
2. YPFSLVLGVFAF
3. IEVACLLTAFCD

0.392
0.41
0.209

Each sequence below has a recorded value; state its protein stability index.
1. WNIVKHREDMLS
2. GWRFCVFIYVHR
3. VFSFGLLFQVCR
4. CGQIAFLGIAVK
5. CLCYFLFYFLFV
6. KDIFQIYTLYVF

1: 0.721; 2: 0.186; 3: 0.631; 4: 0.541; 5: 0.543; 6: 0.467

Quick one: give me protein stability index for each item below, same order please.
1. CRQDWMCFVYLS
2. LCVGFISFCFCL

[0.0647, 0.512]

Fill in protein stability index for each of the 8 sequences listed.
1. SGVVWFYIFCLS
2. YPPLFLLMRGVL
3. CYRRCQAFLVLV
4. FLLVGLLIVGCG
5. IPGGRPLLVEVR
6. LHLSSFVILLEL
7. LKTKKKKTNTQK
8. PSSPTPPPSSSP

[0.494, 0.357, 0.162, 0.334, 0.439, 0.437, 0.683, 0.731]

Below is a list of sequences. For each, state its recorded protein stability index.
1. NLFVFLSYLFNV
2. PVFVLFFFSSLV
3. GQFFRCWRRRLC
4. RGKVVRGLLFCA
5. YLFFSCIFTFSC
6. IWRGGSAVPMIC

[0.484, 0.515, 0.443, 0.318, 0.273, 0.351]

Hello, I would appreciate it if you could give protein stability index for each entry below.
1. YLFLPGGEVSVH
2. YWFWLLIGSFSC

1: 0.637; 2: 0.504

Please state protein stability index for every sequence in the list that follows.
1. ILVFHFWPFLVR
2. VKVKMKIIIIIK
3. NYCVFLSYLLFC

1: 0.503; 2: 0.432; 3: 0.396

Hey, quick one: what's protein stability index for each of these?
1. LSCCIVLLIIFV
2. CKKATILRIKSM
3. PFFVLFSLAFLF
4. RNTLLFKRILHI

1: 0.341; 2: 0.298; 3: 0.422; 4: 0.154

====

- System: Saccharomyces cerevisiae
- assay: protein stability index of tFT-peptide fusion (C-terminal peptide) (PSI (0-1 scale)); higher = more stable (slower turnover)
- condition.description: genetic background: cdc53-1; temperature: 37 C
Kindly supply the reported protein stability index values for the records listed here.

Examples with answers:
| sequence.input | experimental.system | protein stability index |
| --- | --- | --- |
| GLLLRLRNLFCM | Saccharomyces cerevisiae | 0.804 |
| NWAIEIRSVKIV | Saccharomyces cerevisiae | 0.701 |
| PLATSLIGLFVV | Saccharomyces cerevisiae | 0.716 |
| VFSGVTTILVRT | Saccharomyces cerevisiae | 0.517 |
| WLVCAGWVVLSC | Saccharomyces cerevisiae | 0.205 |
| YTQKFTFYGLPA | Saccharomyces cerevisiae | 0.721 |
| YLFFSCIFTFSC | Saccharomyces cerevisiae | 0.198 |
| LQLGFCFVAQFI | Saccharomyces cerevisiae | 0.675 |
| LGSCSLIYRKFS | Saccharomyces cerevisiae | 0.728 |
| SRSYNSPSLYVC | Saccharomyces cerevisiae | 0.65 |

Would you mind giving protein stability index for every sequence in the list below?
1. KVLLYWRHAQRQ
2. PRPETCHAVAVR
3. PLTSPLLFPVFA

1: 0.692; 2: 0.588; 3: 0.338

====

Please go through the items and note down their protein stability index.
- Test system: Saccharomyces cerevisiae
- assay: protein stability index of tFT-peptide fusion (C-terminal peptide) (PSI (0-1 scale)); higher = more stable (slower turnover)
- condition.description: genetic background: wild type; temperature: 30 C
Numbers only.

| sequence.input | endpoint.name | value.reported |
| --- | --- | --- |
| EWEKPEDLHKPA | protein stability index | 0.659 |
| PSPLRDLRSTAL | protein stability index | 0.663 |
| EARGPGPVGGGT | protein stability index | 0.702 |
| PPPPPPARLPSP | protein stability index | 0.711 |
| RKSSAGLERATG | protein stability index | 0.685 |

Look up protein stability index for the entries below, preserving their order.
1. PPPSSSLLPLPF
2. GRLRGGGPVAAR
3. YLFLPGGEVSVH
4. QPALGNTNKYKN
5. VSGEGRGRTTPD

[0.817, 0.692, 0.487, 0.676, 0.665]

Parameter requested: protein stability index. Apply to each item below.
1. TRRVPNSRTGTI
2. IKKITKTKPNHN
3. SSSACNMPVVRL

0.74
0.673
0.705

Can you look up the measured protein stability index of GVGLDSMCVEGF for me? 0.723

====

- Test system: Saccharomyces cerevisiae
- assay: protein stability index of tFT-peptide fusion (C-terminal peptide) (PSI (0-1 scale)); higher = more stable (slower turnover)
- condition.description: genetic background: cdc34-1; temperature: 37 C
Rule: Criterion met for protein stability index not less than 0.1, Criterion not met for anything less.

| sequence.input | category |
| --- | --- |
| SGRAWRLRMHVI | Criterion met |
| SSLRATLLIRAV | Criterion met |
| YGWILQLPCFVI | Criterion met |
| WFLVFLRVGDGP | Criterion met |
| FCSLLVLLFFGV | Criterion met |

Decide: protein stability index of FLLPWLRPVFFF >= 0.1? Criterion met

Could you please find out whether CFFILSLMVVVI has protein stability index that meets 0.1 or exceeds it? Criterion not met

API: above_or_equal(metric=protein stability index, cutoff=0.1) for item VLLCGRMVVVEW Criterion not met

Does FCIYLCLSTSIT have a reported protein stability index of at least 0.1? Criterion not met

Could you please find out whether GVSLRVFVVSVC has protein stability index that meets 0.1 or exceeds it? Criterion met

====

What protein stability index was measured for each of the following?
- Tested on: Saccharomyces cerevisiae
- assay: protein stability index of tFT-peptide fusion (C-terminal peptide) (PSI (0-1 scale)); higher = more stable (slower turnover)
- condition.description: genetic background: das1 deletion; temperature: 30 C
One number for each entry.

| sequence.input | protein stability index |
| --- | --- |
| WEHAMRSRRHKR [SWC3 C-terminal 12 aa] | 0.726 |
| KERTHLFQLIRK [EFM6 C-terminal 12 aa] | 0.699 |
| KCLDLLKTELGE [POC4 C-terminal 12 aa] | 0.699 |
| IHRVIKNATPVA [PEX28 C-terminal 12 aa] | 0.624 |
| GLSLSFSKKLDL [DSN1 C-terminal 12 aa] | 0.685 |

Your task in this section: give protein stability index for each listed record.
1. SFFIYVNFTVYF [YCR001W C-terminal 12 aa]
2. LISEFQKKQAKK [MEF1 C-terminal 12 aa]
3. EEFINKLVKSMN [RPL7A C-terminal 12 aa]
4. DNPETKNGRENK [ECM10 C-terminal 12 aa]
5. CDIQEEQVDITA [PUP1 C-terminal 12 aa]
6. TYSYTIDHPVLT [NUP100 C-terminal 12 aa]

1. 0.175
2. 0.719
3. 0.698
4. 0.675
5. 0.695
6. 0.659

// each listed sequence needs a value for protein stability index
1. GLRVANPDSDPE [YDR239C C-terminal 12 aa]
2. DILLSCIADLTI [POL2 C-terminal 12 aa]

[0.7, 0.71]

====

Can you tell me protein stability index for the items I'm about to list?
- System: Saccharomyces cerevisiae
- assay: protein stability index of tFT-peptide fusion (C-terminal peptide) (PSI (0-1 scale)); higher = more stable (slower turnover)
- condition.description: genetic background: wild type; temperature: 30 C
One number for each entry.

For the 3 sequences below, give their protein stability index values.
1. STTPASLLGHVF
2. PRSPPPLPPSSL
3. HSSHPRPHRTLI

0.644
0.705
0.661

Below are 6 sequences. Give each one its protein stability index.
1. NKKDHTLTKKRT
2. AIIKADKIRRKK
3. GRHRRIRYVKTS
4. VVRLEGGSGAVW
5. PPHPPNPLPTPQ
6. PPPRPLQPRPRP

1: 0.661; 2: 0.675; 3: 0.261; 4: 0.703; 5: 0.829; 6: 0.65

Required: protein stability index, one value per sequence below.
1. WRLDDPTLISNI
2. SRSSPLYRRGVR
3. LGGVLSRQPYSE
4. PPTPRLPPPRLP
5. SSPPAPHLAPPP

[0.693, 0.679, 0.643, 0.67, 0.703]

Working through the 4 sequences below one at a time, give protein stability index for each.
1. SFPFSCSSSVTH
2. NTDPAKRNHPRK
3. RARRYNRQSTPT
4. SGLFPLSPKPCP

1: 0.72; 2: 0.714; 3: 0.702; 4: 0.619

I have 6 sequences here; please give me protein stability index for each one.
1. ILCPFSGCGAGG
2. FPFPLSSFLLLY
3. SFGSAANSRAYI
4. FKRLSTDCSVNS
5. ACGLGGPSDIDN
6. VGWGLGGGVVLV

1. 0.683
2. 0.419
3. 0.749
4. 0.687
5. 0.672
6. 0.675

Could I get protein stability index for every one of these entries?
1. VALFPVSFFSWL
2. SSRPLYLFSALR
3. DGTLTAKVIETF
4. LGVGSVGAKCGS
5. PPPPLPPCTPAT
6. CRNSTKFAVLRE
7. SASSAHLDGACR
8. DLPDGRRFIVIG

1: 0.643; 2: 0.689; 3: 0.66; 4: 0.639; 5: 0.68; 6: 0.654; 7: 0.691; 8: 0.682

Record protein stability index for all entries; do not skip any.
1. LSPPPLPPVPSP
2. PLPPLPPPPPPP

0.712
0.639
